Data provenance is PubChem BioAssay (EPA / NIEHS).

experiment: CCTE_Padilla_ZF_144hpf_TERATOSCORE: (Legacy) CCTE's 144 Hour Post-fertilization zebrafish Assay Teratoscore, Padilla Lab (AID 2283679);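 for AC50: zebrafish embryos with chorions exposed by immersion from 6-8 hpf to 5 dpf with daily renewal; teratogenicity score from eye scoring of death hatching and malformations at 144 hpf; higher score means more developmental defects relative to DMSO baseline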
The source made the active and inactive calls. Rule for the calls: active = hit-call score of the fitted dose curve at least 0.9, where 1 is the maximum; inactive = score below 0.9.
measured-property: AC50

Previously resolved entries follow.
{"molecule": "CCCN(CC)CC1COC2(CCC(C(C)(C)C)CC2)O1 (stereo not given)", "AC50": "62.9 µM (active)"}
{"molecule": "COP(=O)(OC)O/C(C)=C/C(=O)N(C)C", "AC50": "inactive"}
{"molecule": "CCOc1cc(C(C)(C)C)ccc1C1COC(c2c(F)cccc2F)=N1 (stereo not given)", "AC50": "1.9 µM (active)"}
{"molecule": "CNC(=O)Oc1cccc2ccccc12", "AC50": "60.8 µM (active)"}

Give the measured AC50 for COP(=S)(OC)Oc1ccc([N+](=O)[O-])c(C)c1
50 µM (active)

Give the measured AC50 for Nc1cnn(-c2ccccc2)c(=O)c1Cl
inactive

Give the measured AC50 for CCOc1nc(C(Cl)(Cl)Cl)ns1
inactive

Give the measured AC50 for CC(C)(C)C(=O)C(Oc1ccc(Cl)cc1)n1cncn1 (stereo not given)
17.4 µM (active)

Give the measured AC50 for CO/N=C(/C1=NOCCO1)c1ccccc1Oc1ncnc(Oc2ccccc2Cl)c1F
0.182 µM (active)

Give the measured AC50 for Cc1ccc(N=CN(C)C=Nc2ccc(C)cc2C)c(C)c1
27.5 µM (active)

* * *

read-out: Protein phosphatase 2A (PPP2R4), PTPA (gene 5524); test: LTEA_HepaRG_PPP2R4: Life Technologies and Expression Analysis (LTEA) Assay for Protein phosphatase 2A (PPP2R4) using HepaRG (AID 2283522); details: mRNA level, 48 h; actives raise or lower the signal
Calls of active or inactive are those of the source. How the source made its calls: active means hit-call score of the fitted dose curve at least 0.9, where 1 is the maximum; inactive means score below 0.9.
Field 'call' accepts active, inactive

Test call for this compound, please: CSC(=O)c1c(C(F)F)nc(C(F)(F)F)c(C(=O)SC)c1CC(C)C
inactive

Test call for this compound, please: CCCCC(C#N)(Cn1cncn1)c1ccc(Cl)cc1 (stereo not drawn)
inactive

Test call for this compound, please: CC1(C)CON(Cc2ccccc2Cl)C1=O
inactive

Test call for this compound, please: CCNC(=O)NC(=O)C(C#N)=NOC
inactive

Test call for this compound, please: CCOc1nc(C(Cl)(Cl)Cl)ns1
active

Test call for this compound, please: COC(=O)NC(=S)Nc1ccccc1NC(=S)NC(=O)OC
inactive

Test call for this compound, please: COc1ccc(-c2ccccc2)cc1NNC(=O)OC(C)C
inactive

Test call for this compound, please: CCCCC(O)(Cn1cncn1)c1ccc(Cl)cc1Cl (stereo not drawn)
inactive

Test call for this compound, please: C=C(C)CN(CC)c1c([N+](=O)[O-])cc(C(F)(F)F)cc1[N+](=O)[O-]
inactive

Test call for this compound, please: CCC(C)n1c(=O)[nH]c(C)c(Br)c1=O (stereo not drawn)
inactive

Test call for this compound, please: CN=C=S
inactive

Test call for this compound, please: Cc1nc(N(C)C)nc(OC(=O)N(C)C)c1C
inactive

Test call for this compound, please: Clc1nc(Cl)nc(Nc2ccccc2Cl)n1
inactive

* * *

read-out: Insulin-like growth factor-binding protein 1 (IGFBP1), IGFBP1 (gene 3484); assay: LTEA_HepaRG_IGFBP1: Life Technologies and Expression Analysis (LTEA) Assay for Insulin-like growth factor-binding protein 1 (IGFBP1) using HepaRG (AID 2283508); settings: mRNA level, 48 h; actives raise or lower the signal
Active and inactive are the calls of the source. The calls were made as follows: active = hit-call score of the fitted dose curve at least 0.9, where 1 is the maximum; inactive = score below 0.9.
measured-property: AC50

Previously resolved entries follow.
{"compound": "CCOc1nc(F)cc2nc(S(=O)(=O)Nc3c(Cl)cccc3Cl)nn12", "AC50": "50 µM (active)"}
{"compound": "CC(C)Oc1cccc(NC(=O)c2ccccc2C(F)(F)F)c1", "AC50": "inactive"}
{"compound": "Clc1nc(Cl)nc(Nc2ccccc2Cl)n1", "AC50": "inactive"}
{"compound": "CC1(C)CON(Cc2ccccc2Cl)C1=O", "AC50": "inactive"}
{"compound": "CCCN(CC)CC1COC2(CCC(C(C)(C)C)CC2)O1 (stereo unspecified)", "AC50": "inactive"}

Attention now shifts to the item below.
Give the measured AC50 for CCN(CC)c1nc(C)cc(OP(=S)(OC)OC)n1
inactive

* * *

target: Cellular tumor antigen p53 (Homo sapiens) (UniProt P04637); experiment: TOX21_p53_BLA_p4_ratio: Tox21 HCT-116 p53 Agonism Beta-lactamase Assay, Ratio, Phase 4 (AID 2283601)
Sequence (P04637 whole entry, looked up): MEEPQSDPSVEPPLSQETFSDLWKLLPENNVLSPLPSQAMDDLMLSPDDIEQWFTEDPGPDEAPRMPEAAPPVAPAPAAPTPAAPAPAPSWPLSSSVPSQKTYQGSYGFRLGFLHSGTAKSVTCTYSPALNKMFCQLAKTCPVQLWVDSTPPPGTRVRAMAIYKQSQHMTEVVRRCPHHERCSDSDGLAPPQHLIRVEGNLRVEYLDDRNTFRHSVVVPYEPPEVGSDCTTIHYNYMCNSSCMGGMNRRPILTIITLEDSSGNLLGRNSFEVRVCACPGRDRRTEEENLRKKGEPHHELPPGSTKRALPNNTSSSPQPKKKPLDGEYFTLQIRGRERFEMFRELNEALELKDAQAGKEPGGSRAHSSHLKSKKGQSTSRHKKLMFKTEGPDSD
Results filed as inconclusive are left out. Calls of active or inactive are those of the source. The calls were made as follows: active = hit-call score of the fitted dose curve at least 0.9, where 1 is the maximum; inconclusive = response in the unintended direction; inactive = score below 0.9.
Field 'call' accepts active, inactive

Test call for this compound, please: O=c1n(Cl)c(=O)n(Cl)c(=O)n1Cl
inactive

Test call for this compound, please: CC(C)NC(=O)N1CC(=O)N(c2cc(Cl)cc(Cl)c2)C1=O
inactive

Test call for this compound, please: COc1ccc(-c2ccccc2)cc1NNC(=O)OC(C)C
inactive

Test call for this compound, please: CC(C)Nc1nc(Cl)nc(NC(C)C)n1
inactive

Test call for this compound, please: CCOP(=S)(OCC)Oc1nc(Cl)n(C(C)C)n1
inactive

Test call for this compound, please: CCCCC(O)(Cn1cncn1)c1ccc(Cl)cc1Cl (centres undefined)
active

Test call for this compound, please: CC1(C)C(C=C(Cl)Cl)C1C(=O)OC(C#N)c1cccc(Oc2ccccc2)c1 (centres undefined)
inactive

Test call for this compound, please: CS(=O)(=O)c1ccc(C(=O)C2C(=O)CCCC2=O)c([N+](=O)[O-])c1
inactive

Test call for this compound, please: C=C(C)CN(CC)c1c([N+](=O)[O-])cc(C(F)(F)F)cc1[N+](=O)[O-]
active

Test call for this compound, please: CCN(CC)C(=O)C(C)Oc1cccc2ccccc12 (centres undefined)
inactive

Test call for this compound, please: C=CCOC(=O)C(C)(C)OC(=O)c1cc(-n2c(=O)cc(C(F)(F)F)n(C)c2=O)ccc1Cl
inactive

Test call for this compound, please: Nc1c(Cl)c(Cl)nc(C(=O)O)c1Cl
inactive

Test call for this compound, please: COCC(C)N(C(=O)CCl)c1c(C)csc1C (centres undefined)
inactive

Test call for this compound, please: CC1(C)CCC(=Cc2ccc(Cl)cc2)C1(O)Cn1cncn1 (centres undefined)
inactive

* * *

Target: Estrogen receptor (Homo sapiens) (UniProt P03372)
Sequence (P03372 whole entry, looked up): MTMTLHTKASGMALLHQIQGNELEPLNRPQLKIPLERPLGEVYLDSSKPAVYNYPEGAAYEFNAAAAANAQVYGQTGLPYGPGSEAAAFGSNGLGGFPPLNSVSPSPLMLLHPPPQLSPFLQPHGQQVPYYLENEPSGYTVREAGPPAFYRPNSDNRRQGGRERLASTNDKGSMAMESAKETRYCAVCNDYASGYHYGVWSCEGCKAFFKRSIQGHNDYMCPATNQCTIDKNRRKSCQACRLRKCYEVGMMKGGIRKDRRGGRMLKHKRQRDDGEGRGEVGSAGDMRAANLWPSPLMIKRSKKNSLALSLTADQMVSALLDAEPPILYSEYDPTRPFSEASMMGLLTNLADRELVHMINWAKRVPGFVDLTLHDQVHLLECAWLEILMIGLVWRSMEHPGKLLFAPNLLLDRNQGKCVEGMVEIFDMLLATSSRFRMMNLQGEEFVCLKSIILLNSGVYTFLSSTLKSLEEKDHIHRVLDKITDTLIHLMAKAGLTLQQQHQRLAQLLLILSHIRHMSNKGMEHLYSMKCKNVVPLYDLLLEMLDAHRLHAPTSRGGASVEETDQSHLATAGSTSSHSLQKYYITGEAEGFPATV
Experiment: OT_ERa_GFPERaERE_0120: Odyssey Thera (OT) 2-hour HeLa Transcription Induction Assay for Estrogen Receptor (AID 2283382)
Protocol: OT_ERa_GFPERaERE_0120 is a cell-based, single-readout assay that uses HeLa, a human cervix cell line, with measurements taken at 2 hours after chemical dosing in a 384-well plate.OT_ERa_GFPERaERE_0120 is one of one assay component(s) measured or calculated from the OT_ERa_GFPERaERE_0120 assay. […] This assay endpoint, OT_ERa_EREGFP_0120, was analyzed in the positive analysis fitting direction relative to DMSO as the negative control and baseline of activity. […]
Calls of active or inactive are those of the source. How the source made its calls: active means hit-call score of the fitted dose curve at least 0.9, where 1 is the maximum; inconclusive means response in the unintended direction; inactive means score below 0.9.
Field 'call' accepts y for active, n for inactive

Test call for this compound, please: COc1cc(OC)nc(NC(=O)NS(=O)(=O)c2ncccc2OCC(F)(F)F)n1
n

Test call for this compound, please: N#Cc1c[nH]cc1-c1cccc2c1OC(F)(F)O2
n

Test call for this compound, please: COP(=S)(OC)SCn1nnc2ccccc2c1=O
n

Test call for this compound, please: COC(=O)NC(=S)Nc1ccccc1NC(=S)NC(=O)OC
n

Test call for this compound, please: C=C(C)CN(CC)c1c([N+](=O)[O-])cc(C(F)(F)F)cc1[N+](=O)[O-]
y

Test call for this compound, please: COCc1cnc(C2=NC(C)(C(C)C)C(=O)N2)c(C(=O)O)c1 (stereo not drawn)
n

Test call for this compound, please: O=c1n(Cl)c(=O)n(Cl)c(=O)n1Cl
n

Test call for this compound, please: COc1ccc(-c2ccccc2)cc1NNC(=O)OC(C)C
n

Test call for this compound, please: CNC(=O)N(C)c1nnc(C(C)(C)C)s1
n

Test call for this compound, please: OC(c1ccc(Cl)cc1)(c1ccc(Cl)cc1)C(Cl)(Cl)Cl
n

Test call for this compound, please: CCN(CC)c1nc(C)cc(OP(=S)(OC)OC)n1
n

Test call for this compound, please: CC(C)N1C(=O)c2ccccc2NS1(=O)=O
n

Test call for this compound, please: COCC(C)N(C(=O)CCl)c1c(C)csc1C (stereo not drawn)
n

Test call for this compound, please: Nc1c(Cl)c(Cl)nc(C(=O)O)c1Cl
n

Test call for this compound, please: CC1(C)C(C=C(Cl)Cl)C1C(=O)OC(C#N)c1cccc(Oc2ccccc2)c1 (stereo not drawn)
n

Test call for this compound, please: CCC(C)n1c(=O)[nH]c(C)c(Br)c1=O (stereo not drawn)
n

Test call for this compound, please: CC(C)C1(C)N=C(c2ncccc2C(=O)O)NC1=O (stereo not drawn)
n

Test call for this compound, please: Cc1ccc(N=CN(C)C=Nc2ccc(C)cc2C)c(C)c1
n

Test call for this compound, please: Cc1c(COC(=O)[C@@H]2[C@H](/C=C(\Cl)C(F)(F)F)C2(C)C)cccc1-c1ccccc1
n

Test call for this compound, please: O=C(O)c1c(Cl)ccc2cc(Cl)cnc12
n

Test call for this compound, please: CCNC(=O)NC(=O)C(C#N)=NOC
n

Test call for this compound, please: CCCN(CC)CC1COC2(CCC(C(C)(C)C)CC2)O1 (stereo not drawn)
n

Test call for this compound, please: CC(C)=CC1C(C(=O)OCc2coc(Cc3ccccc3)c2)C1(C)C (stereo not drawn)
n

Test call for this compound, please: COCC(=O)N(c1c(C)cccc1C)C(C)C(=O)OC (stereo not drawn)
n

Test call for this compound, please: CC(C)NC(=O)N1CC(=O)N(c2cc(Cl)cc(Cl)c2)C1=O
n

Test call for this compound, please: Cc1cc(C)nc(Nc2ccccc2)n1
n

Test call for this compound, please: CCOP(=O)(OCC)Oc1nc(Cl)c(Cl)cc1Cl
n

Test call for this compound, please: COC(=O)N(C(=O)N1CO[C@@]2(C(=O)OC)Cc3cc(Cl)ccc3C2=N1)c1ccc(OC(F)(F)F)cc1
n

Test call for this compound, please: CCCCC(C#N)(Cn1cncn1)c1ccc(Cl)cc1 (stereo not drawn)
n

Test call for this compound, please: Clc1cccc(C(Cl)(Cl)Cl)n1
n

Test call for this compound, please: COP(=S)(OC)Oc1ccc([N+](=O)[O-])c(C)c1
n

Test call for this compound, please: CC1(C)C(C(=O)OC(C#N)c2cccc(Oc3ccccc3)c2)C1(C)C (stereo not drawn)
n

Test call for this compound, please: Cn1c(-c2ccccc2)cc(-c2ccccc2)[n+]1C
n
